biological target: muscarinic cholinergic receptor; format: binding, rat; conditions: pH 7.4; read-out: ^3 H-QNB Ki
Measured property: Ki (µM)
Value expressed in µM; do not type the unit.

Given `CN(C)C(=O)O[C@H]1CCN(CC#CCN2CCCC2)C1=O` , respond with its Ki.
40.3

----------
target: muscarinic cholinergic receptor; assay: [^3 H]-Cis-methyldioxolane (^3 H-CD) Binding Assay (High Affinity); conditions: rat cerebral cortex, ^3 H-CD 1.0 nM, 25° C., 120 minutes, pH 7.4; high affinity agonist binding
Measured pKi, listed per entry.
For clarity, pKi is expressed as the negative log10 of concentration in mol/L.

Solved entries:
Report measured pKi; entry is O=C1C(O)CCN1CC#CCn1ccnc1 (centres unmarked)
5.70

Provide one value: measured pKi of `CCCCCCCCCC(=O)O[C@H]1CC(=O)N(CC#CCN2CCCC2)C1`
6.48

Please look at this compound and report its pKi: `CC(C)(C)[Si](C)(C)OC[C@@H]1CCCN1CC#CCN1CC[C@H](O)C1=O`
6.85

For `CC(=O)O[C@@H]1CCN(CC#CCN(C)CCO)C1=O` , write its pKi.
4.55

Please give the documented pKi of `CC(C)(C)[Si](C)(C)OC[C@@H]1CCCN1CC#CCN1CC[C@@H](O)C1=O`
6.33

More entries:
Annotate the compound `CCN(CC)CC#CCN1CC[C@H](O[Si](C)(C)C(C)(C)C)C1=O` with its measured pKi.
4.81

Give pKi for `CN(CC#CCN1CC[C@@H](O)C1=O)CCO`
5.74

Recall and state the measured pKi for `CCCCCCCCCC(=O)O[C@H]1CCN(CC#CC[N+](C)(C)C)C1=O` .
6.81

# return recorded pKi for entry `O=C1[C@@H](O)CCN1CC#CCn1ccnc1`
6.92

Report pKi for `[N-]=[N+]=N[C@@H]1CCN(CC#CCN2CCCC2)C1=O`
6.68

The origin of these recorded values is patent US5637731A.
